Tested on: DIPGX37 (H3.3 K27M diffuse intrinsic pontine glioma line)
Test: growth inhibition (% activity, log2 RLU normalised to DMSO / staurosporine); higher = more growth inhibition
Details: 33 µM
Value Kind: growth inhibition (%)

[[record]]
molecule = "N[C@@H]1CONC1=O"
observed_measurement = -0.333

[[record]]
molecule = "COc1ccc(CN2CCN(C(c3ccc(F)cc3)c3ccc(F)cc3)CC2)c(OC)c1OC"
observed_measurement = 4.29

[[record]]
molecule = "COCCOC(=O)C1=C(C)NC(C)=C(C(=O)OC(C)C)C1c1cccc([N+](=O)[O-])c1 (stereo not drawn)"
observed_measurement = 0.964

[[record]]
molecule = "COc1ncnc(NS(=O)(=O)c2ccc(N)cc2)c1OC"
observed_measurement = 2.24

[[record]]
molecule = "C[C@@H]1O[C@@H]1P(=O)(O)O"
observed_measurement = -0.548

[[record]]
molecule = "O=c1cc[nH]c(=S)[nH]1"
observed_measurement = 1.68

[[record]]
molecule = "C[C@]12C=CC(=O)C=C1CC[C@@H]1[C@@H]2C(=O)C[C@@]2(C)[C@H]1CC[C@]2(O)C(=O)CO"
observed_measurement = -1.18

[[record]]
molecule = "COC(=O)C1=CO[C@@H](O[C@@H]2O[C@H](CO)[C@@H](O)[C@H](O)[C@H]2O)[C@@H]2C(CO)=CC[C@H]12"
observed_measurement = -0.171

[[record]]
molecule = "CCCCCCCCCCCCCCCC(=O)O[C@@H]1[C@@H](O)[C@@H](O)[C@@H]([C@H](NC(=O)[C@@H]2C[C@@H](CCC)CN2C)[C@H](C)Cl)O[C@@H]1SC"
observed_measurement = -0.882

[[record]]
molecule = "CCC[C@@H]1C[C@@H](C(=O)N[C@@H]([C@H]2O[C@H](SC)[C@H](O)[C@@H](O)[C@H]2O)[C@@H](C)O)N(C)C1"
observed_measurement = 0.84

[[record]]
molecule = "CC(=O)OCC[N+](C)(C)C"
observed_measurement = 3.32

[[record]]
molecule = "CC(C)C[C@H](NC(=O)[C@H](O)[C@H](N)Cc1ccccc1)C(=O)O"
observed_measurement = 0.0198

[[record]]
molecule = "Cc1ccc(O)c([C@H](CCN(C(C)C)C(C)C)c2ccccc2)c1"
observed_measurement = 1.21

[[record]]
molecule = "C/C(O)=C(\\C#N)C(=O)Nc1ccc(C(F)(F)F)cc1"
observed_measurement = 5.04

[[record]]
molecule = "N[C@@H](Cc1ccc(O)c(O)c1)C(=O)O"
observed_measurement = 0.423

[[record]]
molecule = "Cc1cc(NS(=O)(=O)c2ccc(N)cc2)no1"
observed_measurement = -1.05

[[record]]
molecule = "Cc1cc(C(C)(C)C)c(O)c(C)c1CC1=NCCN1"
observed_measurement = 3.01

[[record]]
molecule = "CNNCc1ccc(C(=O)NC(C)C)cc1"
observed_measurement = -0.517

[[record]]
molecule = "NC(=O)c1ncn([C@@H]2O[C@H](CO)[C@@H](O)[C@H]2O)c1N"
observed_measurement = 1.81

[[record]]
molecule = "COc1ccc(C2C(=O)c3ccccc3C2=O)cc1"
observed_measurement = 1.03

[[record]]
molecule = "CCCC(=O)Nc1ccc(OCC(O)CNC(C)C)c(C(C)=O)c1 (stereo not drawn)"
observed_measurement = -0.501

[[record]]
molecule = "NC(=O)c1cccnc1"
observed_measurement = -1.05

[[record]]
molecule = "N=C(N)N"
observed_measurement = 2.64


This collection of values is drawn from the supplement of paper PMC8253809.
